tested on: SN12C; assay: NCI tumour cell line growth inhibition, 48 h
Activity calls are given as the source filed them. Cut-off read from the data, not from the text of the source: active = GI50 up to about 1.1 µM and inactive = higher.
Pick from true (active), false (inactive) when you respond.

Worked cases, answers included:
molecule: Cn1c(=O)c2c(nc(NCCNc3nc4c(c(=O)n(C)c(=O)n4C)n3C)n2C)n(C)c1=O
study.system: SN12C
category.label: false

molecule: NS(=O)(=O)c1ccc(N2C(=O)C(=O)N(c3ccccc3)C2=S)cc1
study.system: SN12C
category.label: false

molecule: Cn1cnc2c(NCc3ccccc3)nc(NCCO)nc21
study.system: SN12C
category.label: false

Recorded test call requested for Cc1ccc(NC(=O)C2C3C=CC(O3)C2C(=O)O)cc1 (configuration not stated)
false

Recorded test call requested for CC(Sc1ccccc1)C(CO)(CO)[N+](=O)[O-] (configuration not stated)
false

Recorded test call requested for Cc1cnc2nc(-c3cccc4ccccc34)cc(O)c2c1
true

Recorded test call requested for COc1cccc(/C=C2\CCC(CN(C)C)C2=O)c1 (configuration not stated)
false

Recorded test call requested for COC(=O)c1ccc(O)c2nc3c(C=O)c(O)cc(O)c3nc12
true

Recorded test call requested for O=C1c2cccc3c(Cl)ccc(c23)C(=O)N1CCCN1CCN(CCCN2C(=O)c3cccc4c(Cl)ccc(c34)C2=O)CC1
false

Recorded test call requested for CCCCOc1c(C(=O)O)cc(Br)cc1C(=O)O
false

Recorded test call requested for C=CC(OC(C)=O)c1ccc(OC(=O)C(C)C)c(OC)c1 (configuration not stated)
false

Recorded test call requested for COc1cc2cc(OC(C)=O)c3cc4c(cc3c2c(OC)c1OC)OCO4
false

Recorded test call requested for CC1=C2C(c3ccccc3)(c3ccccc3)C3C=CC2(C=N3)N(C(=O)NC2CCCCC2)C1=O (configuration not stated)
false

Recorded test call requested for COc1ccc(NC(C)=O)cc1N1C(=O)/C(=C\c2cc(OC)c(OC)c(OC)c2)SC1c1ccccc1 (configuration not stated)
false

Recorded test call requested for CC(C)C(=O)Nc1nc2[nH]cnc2c(=O)[nH]1
false

Recorded test call requested for CC1(C)CC(N(C(=O)/C=C/c2ccc([N+](=O)[O-])o2)C2CCCCC2)CC(C)(C)N1
false

Recorded test call requested for O=C(O)c1cc(-c2ccc3c(O)ccc(O)c3c2)ccc1O
false

Recorded test call requested for C/C(=N/NC(=S)NCCc1ccccn1)c1cnccn1
false

Recorded test call requested for CCOP1(=O)C=C(C)C(Cl)=C(C)C1 (configuration not stated)
false

Recorded test call requested for COc1ccc2cc1Oc1ccc(cc1)CC1c3cc(c(OC)cc3CCN1C)Oc1c3c(cc4c1C(C2)N(C)CC4)OCO3 (configuration not stated)
false

Recorded test call requested for CN1CC(=O)N(C)c2[nH]cnc2C1=O
false

Recorded test call requested for O=[N+]([O-])C(=C(Nc1ccccc1)Nc1ccccc1)C(Cl)=C(Cl)Cl
false
